Tested on: U2OS
Experiment: Multiplex assay against U2OS
Type: toxicity, cell-based
Details: human, 12 h, 10 µM, compound concentration 10 uM, replicate 2
Mark 1 (yes) for Population Mitochondria Different-Phenotype (%) under 20%, 0 (no) if at or over.

INSERT INTO measurements (compound, class) VALUES
  ('O=C1N/C(=N/c2ccccc2F)S/C1=C\c1ccc(C(=O)O)cc1', '1 (yes)'),
  ('COc1ccc(-c2ccc3c(N4CCOCC4)nc(N4C[C@@H](C)O[C@@H](C)C4)nc3n2)cc1CO', '1 (yes)'),
  ('O=C(Cc1ccc(-c2ccc(OCCN3CCOCC3)cc2)cn1)NCc1ccccc1', '1 (yes)'),
  ('Cl.Oc1ccc2c3c1O[C@H]1c4[nH]c5c(c4C[C@@]4(O)[C@@H](C2)N(CC2CC2)CC[C@]314)C[C@@]1(O)[C@H]2Cc3ccc(O)c4c3[C@@]1(CCN2CC1CC1)[C@H]5O4', '0 (no)'),
  ('COC(=N)c1nc2ccc3ncnc(Nc4ccc(OC)cc4F)c3c2s1', '0 (no)'),
  ('Cn1nc(C(F)(F)F)cc1-c1cnc(N2CCc3cc(S(=O)(=O)Nc4c(F)cc(Cl)cc4F)cc(N4CCCC4=O)c32)nc1', '0 (no)'),
  ('Cc1cn(-c2cc(NC(=O)c3ccc(C)c(Nc4nccc(-c5cccnc5)n4)c3)cc(C(F)(F)F)c2)cn1', '0 (no)'),
  ('O=C(Nc1cccnn1)N1CCC(=Cc2cccc(Oc3ccc(C(F)(F)F)cn3)c2)CC1', '0 (no)'),
  ('CCn1c(=O)c(-c2ccc(-c3cncs3)cc2Cl)cc2cnc(Nc3ccc(N4CCN(C)CC4)cc3)nc21', '0 (no)'),
  ('O=C(Nc1ccc(-n2nc(-c3cccnc3)cc2C(F)(F)F)cn1)c1ccc(-c2ccccc2)c(F)c1', '1 (yes)'),
  ('CN(C)C(=O)C(CCN1CCC(O)(c2ccc(Cl)cc2)CC1)(c1ccccc1)c1ccccc1.Cl [LOPERAMIDE HYDROCHLORIDE]', '0 (no)');

# credit: ChEMBL document CHEMBL4689842
